- TEST TARGET: PKR K410E (Homo sapiens, UniProt P30613, K410E)
- Sequence (P30613 whole entry K410E): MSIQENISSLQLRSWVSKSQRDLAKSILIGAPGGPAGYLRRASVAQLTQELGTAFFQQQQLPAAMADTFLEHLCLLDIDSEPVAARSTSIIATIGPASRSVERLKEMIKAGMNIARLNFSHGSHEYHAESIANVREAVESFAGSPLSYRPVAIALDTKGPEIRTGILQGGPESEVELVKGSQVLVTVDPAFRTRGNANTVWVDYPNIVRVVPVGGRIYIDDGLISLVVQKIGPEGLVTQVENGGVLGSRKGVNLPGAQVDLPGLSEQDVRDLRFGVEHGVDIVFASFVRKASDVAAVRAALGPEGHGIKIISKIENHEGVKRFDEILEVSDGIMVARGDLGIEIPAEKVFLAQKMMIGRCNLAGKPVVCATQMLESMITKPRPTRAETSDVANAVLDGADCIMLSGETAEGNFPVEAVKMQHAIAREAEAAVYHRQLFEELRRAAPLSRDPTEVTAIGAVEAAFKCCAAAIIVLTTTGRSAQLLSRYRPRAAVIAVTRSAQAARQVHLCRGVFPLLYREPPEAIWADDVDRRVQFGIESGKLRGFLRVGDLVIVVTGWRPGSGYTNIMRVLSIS
- EXPERIMENTAL PROTOCOL: PKR mutant assay (K410E), AC50, LDH/NADH-coupled, absorbance at 340 nm
- Format: biochemical
- PARTICULARS: Table 2; enzyme assay
- Description: Example 11. PKR Mutant Assay PKR or PKR mutant enzyme solution was diluted into a reaction mix, which contains 1× buffer (100 mM KCl, 50 mM Tris pH 7.5, 5 mM MgCl2) as well as PEP (conc depends on enzyme), 180 μM NADH, 0.5 units LDH, 1 mM DTT, 0.03% BSA; final assay concentrations after 1.11 fold dilution are indicated. […] 20 uL ADP was added to start reaction at room temperature and reaction progress was measured as changes in absorbance at 340 nm wavelength at room temperature. […]
MEASUREMENT NAME: AC50

>  <COMPOUND>
COc1ccccc1Cn1ncc2c3sc(C)nc3n(C)c2c1=O

>  <MEASURED RESULT>
301 to 800 nM

$$$$
>  <COMPOUND>
Cn1c2nc([S+](C)[O-])sc2c2cnn(Cc3cccc4c3CCN4)c(=O)c21 (stereo not shown)

>  <MEASURED RESULT>
< 300 nM

$$$$
>  <COMPOUND>
Cn1c2nc(C(N)=O)sc2c2cnn(Cc3cccc4[nH]ncc34)c(=O)c21

>  <MEASURED RESULT>
301 to 800 nM

$$$$
>  <COMPOUND>
Cn1c2nc(Cc3cccc(=O)[nH]3)sc2c2cnn(Cc3cccc4[nH]ncc34)c(=O)c21

>  <MEASURED RESULT>
< 300 nM

$$$$
>  <COMPOUND>
Cn1c2nc(C(N)c3cc[nH]n3)sc2c2cnn(Cc3cccc4[nH]ncc34)c(=O)c21 (stereo not shown)

>  <MEASURED RESULT>
< 300 nM

$$$$
>  <COMPOUND>
Cn1c2nc(Cc3ccc4cn[nH]c4c3)sc2c2cnn(Cc3cccc4[nH]ncc34)c(=O)c21

>  <MEASURED RESULT>
< 300 nM

$$$$
>  <COMPOUND>
Cc1nc2c(s1)c1cnn(Cc3c[nH]cn3)c(=O)c1n2C

>  <MEASURED RESULT>
> 800 nM

$$$$
>  <COMPOUND>
Cc1nc2c(s1)c1cnn(Cc3cccc4[nH]ncc34)c(=O)c1n2C

>  <MEASURED RESULT>
> 800 nM

$$$$
>  <COMPOUND>
CNc1cccc(Cn2ncc3c4sc(C)nc4n(C)c3c2=O)c1

>  <MEASURED RESULT>
< 300 nM

$$$$
>  <COMPOUND>
Cc1nc2c(s1)c1cnn(Cc3cccc4c3cnn4C)c(=O)c1n2C

>  <MEASURED RESULT>
< 300 nM

$$$$
